Taken from the RNAGym collection of RNA variant scans (doi:10.7554/elife.80360).

B1: HDV Ribozyme (parent)
chain: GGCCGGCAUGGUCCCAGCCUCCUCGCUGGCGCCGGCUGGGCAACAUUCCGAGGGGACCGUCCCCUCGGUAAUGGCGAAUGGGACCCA

Variants of: B1
Experiment: self-cleavage, relative activity (ratio to wild type); higher = more cleavage; co-transcriptional
assayEndpoint: self-cleavage
Answer using only a numeral; do not append any unit.

sequenceInput	quantitativeResult
GGCCGGCAAGGACCCAGCCUCCUCGCUGGCGCCGGCUGGGCAACAUUCCGAGGGGACCGUCCCCUCGGUAAUGGCGAAUGGGACCCA [U9A U12A]	0.361
GGCCGGCAUGGUCCCAGCCUCCUCGCUGGCGCCGGCUGGGCAACAGUCCGAGGGGACCGUCCCCUGGGUAAUGGCGAAUGGGACCCA [U46G C66G]	0.633
GGCCGGCAUGGUCCCAGCCUCCUCGCUGGCGCCGGCUGGGGAACAUUCCGAGGGGACCGUCCCCUCGGUAAAGGCGAAUGGGACCCA [C41G U72A]	0.499

Give its self-cleavage value. Item: GGCCGGCAUGGUCCCAGCCUCCUCGCUGGCGCCGCCUGGGCAACAUUCCGAGGGGACCGUCCCCUCGGUAAUGGCGAAUGGGACCAA [G35C C86A]
0.212

Looking for the measured self-cleavage of GGCCGGCAUGUUCCCAGCCUCCUCGCUGGCGCCGGCUGGGUAACAUUCCGAGGGGACCGUCCCCUCGGUAAUGGCGAAUGGGACCCA [G11U C41U] , can you help?
0.358

Reported self-cleavage, variant GGCCGGCAUGGUCCCAGACUCCUCGCCGGCGCCGGCUGGGCAACAUUCCGAGGGGACCGUCCCCUCGGUAAUGGCGAAUGGGACCCA [C18A U27C] : ____
0.135

Which self-cleavage is reported for this variant? GGCCAGCAUGGUCCCAGCCUCCUCGCUGGCGCCGGCUGGGCAACAUUCCGAGGGGACCGUCCCCUCGGUAAUGGCGAAUGGGACACA [G5A C85A]
0.113

Fill in the blank: the reported self-cleavage of GGCCGGCAUGGUCCCAGCCUCCUCGCUGGCACCGGCUGGGCAACAUUCAGAGGGGACCGUCCCCUCGGUAAUGGCGAAUGGGACCCA [G31A C49A] is ____.
0.353

Query: self-cleavage; subject: GGCCGGCAUGGUCCCAGCCUCCUCGCUGGCGCCGGCUGGGAAACAUUCCGAGGGGACCGUCCCCUCGGCAAUGGCGAAUGGGACCCA [C41A U69C]
0.898

Return reported self-cleavage; argument: GGCCGGCAUGGUCCCAGCCUCCUCGCUGGCGCCGGCUGGGCAACAUUCCGAUGGGACCGUCCCCUCGGUAAUGGUGAAUGGGACCCA [G52U C75U]
0.115

Form field: reported self-cleavage of GGCCGGCAUGGUCCCAGCCUCCUCGCUGGCGCCGGCUGGGCCACAUUCCGAGGGGACCGUCCUCUCGGUAAUGGCGAAUGGGACCCA [A42C C63U]
0.19

Item GGCCGGCAUGCUCCCAGCCUCCUCGCUGGCGCCGGCUGGGCAACAUUCCGAGGGGACCGUCCCCUCGGUAAUGGCGAAUGGGAGCCA [G11C C84G] has what recorded self-cleavage?
0.831

Which self-cleavage value belongs to GGCCGGCAUGGUCCCAGCCUCCUCGCUGGCGCCGGCUGGGCAACAUUCCAAGGGGACCGUCCCCUCGGUAAUGGCGAAUUGGACCCA [G50A G80U] ?
0.233

// returns reported self-cleavage for input GGCCGGCAUGGUCCCUGCCUCCUCGCUGGCGCCGGCUGGGCAACAUUCCGAGGGGACCGUCCCCCCGGUAAUGGCGAAUGGGACCCA [A16U U65C]
0.965

Which measured self-cleavage value corresponds to GGCCGGCAUGGUCCCAGCCUCCUCGCUGGCGCCGGCUGGGCAACAUUCCGAGGGGACCGUCCCCUCGGUAAUGGCGAAUCGGACCCU [G80C A87U] ?
0.177

Endpoint output: self-cleavage of GGCCGGCAUGGUCCCAGCCUCCUCGCUGGCGCCGGCUGGGCAACAUUCCGAGGGGACCGUCCCCCCGGUAAUGGCGAACGGGACCCA [U65C U79C] . Value?
0.415

Consider the variant shown here: GGCCGGCAUGGUCCCAGCCUCCUCGCUGGCGCCGGCUGGGCAACAUUCCGAGGGGACCGUCCCCUCGGUAAUGGCGAAUGGGUUCCA [A83U C84U] What is its recorded self-cleavage?
0.87

Quick one: self-cleavage of GGCCGGCAUGGUCCCAGCCUCCUCGCUGGCGCCGGCUGGGCAACAUUCCGAGGGGACCGUCCCCGCGGUAAUGGCGAAUGGGACCCG [U65G A87G] ?
0.973

Tell me the measured self-cleavage of GGGCGGUAUGGUCCCAGCCUCCUCGCUGGCGCCGGCUGGGCAACAUUCCGAGGGGACCGUCCCCUCGGUAAUGGCGAAUGGGACCCA [C3G C7U] , please.
0.226

// self-cleavage lookup, key: GGCCGGCAUGGUCCCAGCCUCCUCGCUGGCGCCGGCUGGGCAACAUUCCGAGGGGACCGUCCCCUCGGUAAUGGCGCAUGGGACCCA [A77C]
0.377

# lookup: self-cleavage of GGCCGGCAUGGUCCCAGCCUCCUCGCUGGCGCCGGCUGGGCUACAUUCCGAGGGGACCGUCCCCUCGGUAAUGGCGAAUGGGAACCA [A42U C84A]
0.655

GET /values?readout=self-cleavage&item= GGCCGGCAUGGUCCCAGCCUCCUCGCUGGCGCCGGCUGGGCAGCAUUCCGAGGGGACCGUCCCCACGGUAAUGGCGAAUGGGACCCA [A43G U65A]
0.554

Query: self-cleavage; subject: GGCCAGCAUGGUCCCAGCCUCCUCGCUGGCGCCGGCUGGGCAACAUUCCGAGGGGACCUUCCCCUCGGUAAUGGCGAAUGGGACCCA [G5A G59U]
0.222

Tell me the measured self-cleavage of GGCCGGCAUGGUCCCAGCCUCCUCGCUGGCGCCGGCUGGGCAACAUUCCGAGGGGACGGUCCCCUCCGUAAUGGCGAAUGGGACCCA [C58G G67C] , please.
0.739

May I ask what self-cleavage has been recorded for GGCCGGCAUGGUCCCAGCCUCCUCGCUGGCGCCGGCUGGGCAACCUUCCGAGGGGAGCGUCCCCUCGGUAAUGGCGAAUGGGACCCA [A45C C57G] ?
0.851

Which self-cleavage is listed for GGCCGGCGUGGUCCCAGGCUCCUCGCUGGCGCCGGCUGGGCAACAUUCCGAGGGGACCGUCCCCUCGGUAAUGGCGAAUGGGACCCA [A8G C18G] ?
0

Request the reported self-cleavage associated with GGCCGGCAUGGUCCCAGCCUCCUCGCUGGCGCCGGCUGGGCAACAUUCCGAGGGGAACGUCCCUUCGGUAAUGGCGAAUGGGACCCA [C57A C64U]
1

Could you tell me which self-cleavage is on file for GGCUGGCAUGGUCCCAGCCUCCUCGCUGGCGCCGGCUGGGCAAAAUUCCGAGGGGACCGUCCCCUCGGUAAUGGCGAAUGGGACCCA [C4U C44A] ?
0.578
